Values compiled from patent US20250034594A1.

Test system: gene editing with Cas9
Assay: Screen of 322 new SSAP proteins, gene editing activity with Cas9 (Table 5)
Type: cell-based
Details: normalized
Catalogue of Cas9 with SSAP activity (normalized) values
RECORDED_METRIC: Cas9 with SSAP activity (normalized)

[[record]]
molecule = "SSAP_263: SEQ ID NO: 432; Gulosibacter molinativorax (protein, Gulosibacter molinativorax) TDLTEKIATKAVAVKKDPKIADLMKSYEPQFARSLGKSMDAAKFGQDALTAIKQTPKLLEADQRSLFGAIFLAAQLKLPVGGPLAQFHLTPRKVAGEMTVVPIIGYNGYIQLAMNTGLYSKVGAFTVHANDHFRTGANSERGEFYDYERATGDRGELTGVIGYAKVKGFDESSFVYLDAATVRERHRPKFWDKTPWASDEGEMFRKTAIRVLQKYLPKSIEAAPLALAAQADQATVRRVDGVDDLQIDHEDIAIAEVIEDD"
recorded_metric = "Cas9 with SSAP activity (normalized)"
numeric_value = "−0.666"

[[record]]
molecule = "SSAP_214: SEQ ID NO: 383; Clostridium tunisiense (protein, Clostridium tunisiense) TTKANVTSVKNALKEQIQVQQVAAQTDTSFQGVLTKQLQHQFKAIQSLVPKHVTPERLCRIGINAASRNPQLMNCTPETIVGAIVNCATLGLEPNLLGHAYIVPFYNNKTGKMEAQFQVGYKGALDLIRRTGAVSTLSAHEVYGPRSIFWTQYFY"
recorded_metric = "Cas9 with SSAP activity (normalized)"
numeric_value = "−0.545"

[[record]]
molecule = "SSAP_312: SEQ ID NO: 481; Gallionellaceae bacterium CG1_02_56_997 (protein, Gallionellaceae bacterium CG1_02_56_997) GRKEVERIRDGSRGYQAAKKYKKESTWDTDFVAMGLKTAIRRICKFLPKSPELATALAMDEQAGRQNLNLDDVINGSYTPVVDKDTGEIVDVADGGKTGNSNAATSTKLEKLEKIVAALRDANSVEALDEIYIRAEGDLDDANLEIAMREYRKCKDAISNSLI"
recorded_metric = "Cas9 with SSAP activity (normalized)"
numeric_value = "−0.436"

[[record]]
molecule = "SSAP_119: SEQ ID NO: 288; Bacillus albus (protein, listed as Bacillus albus) ATNEKLKNQLANRKESAPATPEQTVEAYMKKMAPKMAEVLPKHMDMGRMSRMALTTMRTSPKLLNCTVSSLMGAVMQAVQLGLEPGLLGHCYILPYKGEATFIIGYKGMIDLARRSGHIQSIYAHAVHENDEFDYELGLHPKLEHKPVHGDRGAFVGAYAVAHFKDGGYQMEFMPKSEIEKRRKRSASANSSFSPWKSDYEEMAKKTVIRYIFKYLPISIEVQLLAAQDEVVRKDITEEPEFIEADPIDVEQPTTEGDGQQEFSIEE"
recorded_metric = "Cas9 with SSAP activity (normalized)"
numeric_value = "−3.635"

[[record]]
molecule = "SSAP_36: SEQ ID NO: 205 (protein) SSIAAAAESAEVTPASIINKYRDDIATVLPPKLRERIDRWIRLAIGAVNSNPELISRVRADQGASMMQALMKCAALGHEPGSGLFHLVPKGSRIEGWEDYKGILQRIDRSGVYARTVIGVVYANDEYSYDQNVDERPRHVRATGDRGEPISSYAYAVYPSGAITTVAEATPEQIASSKSKARGADNAASPWRAPGAPMHRKVAVRLLEKHVATSAEDRREPISRSAANDVVIDATADYYQEP"
recorded_metric = "Cas9 with SSAP activity (normalized)"
numeric_value = "−0.619"

